All values here come from patent US20260234157A1.

- Tested On: AR protein (Homo sapiens, UniProt P10275, T878A)
- Construct: degradation activity of the compounds disclosed in the present disclosure on AR protein in LNCaP cells; host or cells: LNCaP FGC
- Sequence (P10275 1-920 T878A): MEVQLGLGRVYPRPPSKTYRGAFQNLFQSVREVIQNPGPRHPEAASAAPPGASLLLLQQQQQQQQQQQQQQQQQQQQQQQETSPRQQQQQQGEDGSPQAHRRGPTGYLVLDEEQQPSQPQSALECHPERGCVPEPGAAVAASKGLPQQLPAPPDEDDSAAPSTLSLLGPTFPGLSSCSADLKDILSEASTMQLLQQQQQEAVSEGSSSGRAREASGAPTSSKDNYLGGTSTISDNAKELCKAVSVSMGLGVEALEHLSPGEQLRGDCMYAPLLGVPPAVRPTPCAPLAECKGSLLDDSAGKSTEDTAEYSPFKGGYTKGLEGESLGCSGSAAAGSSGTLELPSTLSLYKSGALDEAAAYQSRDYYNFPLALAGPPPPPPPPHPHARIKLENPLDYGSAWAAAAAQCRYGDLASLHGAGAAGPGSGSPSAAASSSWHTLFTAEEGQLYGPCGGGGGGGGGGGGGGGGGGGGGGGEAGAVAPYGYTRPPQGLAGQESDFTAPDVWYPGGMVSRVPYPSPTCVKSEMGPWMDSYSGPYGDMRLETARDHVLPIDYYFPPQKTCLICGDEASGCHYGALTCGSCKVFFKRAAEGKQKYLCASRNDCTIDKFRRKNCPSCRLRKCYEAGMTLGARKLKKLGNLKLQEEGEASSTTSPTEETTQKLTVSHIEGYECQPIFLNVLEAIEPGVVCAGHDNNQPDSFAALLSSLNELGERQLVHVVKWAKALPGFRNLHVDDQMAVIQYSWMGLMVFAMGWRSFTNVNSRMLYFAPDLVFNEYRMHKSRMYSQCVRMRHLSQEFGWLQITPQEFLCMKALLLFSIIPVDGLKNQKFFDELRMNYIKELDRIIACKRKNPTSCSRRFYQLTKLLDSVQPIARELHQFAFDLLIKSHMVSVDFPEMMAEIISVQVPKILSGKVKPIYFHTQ
- Assay Method Text: Degradation of AR protein in LNCaP cells (Western blot)
- Assay type: cell-based
- Condition Info: LNCaP cells, compound 100 nM, 8 hours, Western blot grayscale, GAPDH internal reference; read-out: Degradation rates of the AR protein in LNCaP cells, 100 nM (%)
Tick y if inhibition at 0.1 µM is 60% or greater. Tick n if inhibition at 0.1 µM is less than 60%.

Query string: Check the entry N#Cc1ccc(O[C@H]2CC[C@H](NC(=O)c3ccc(N4CCC5(CCC(N6CCC7(CC6)COc6cc8c(cc6C7)C(=O)N(C6CCC(=O)NC6=O)C8=O)CC5)CC4)nn3)CC2)cc1Cl (some centres unmarked) : does inhibition at 0.1 µM equal or exceed 60%?
Result string: y

Query string: Check the entry N#Cc1ccc(O[C@H]2CC[C@H](NC(=O)c3ccc(N4CC[C@H](CN5CCC6(CC5)COc5cc7c(cc56)C(=O)N(C5CCC(=O)NC5=O)C7=O)C4)nn3)CC2)cc1Cl (some centres unmarked) : does inhibition at 0.1 µM equal or exceed 60%?
Result string: n

Query string: Check the entry COc1cc(O[C@H]2C(C)(C)[C@H](NC(=O)c3ccc(N4CCC(F)(CN5CCC6(CC5)COc5c6ccc6c5C(=O)N(C5CCC(=O)NC5=O)C6=O)CC4)cc3)C2(C)C)ccc1C#N (some centres unmarked) : does inhibition at 0.1 µM equal or exceed 60%?
Result string: n

Query string: Check the entry N#Cc1ccc(O[C@H]2CC[C@H](NC(=O)c3ccc(N4CCC5(CC4)CC(F)(F)c4cc6c(cc4O5)C(=O)N(C4CCC(=O)NC4=O)C6=O)nn3)CC2)cc1Cl (some centres unmarked) : does inhibition at 0.1 µM equal or exceed 60%?
Result string: n

Query string: Check the entry COc1cc(O[C@H]2C(C)(C)[C@H](NC(=O)c3ccc(N4CCC(CN5CCC6(CC5)COc5c6ccc6c5C(=O)N(C5CCC(=O)NC5=O)C6=O)CC4)cc3)C2(C)C)ccc1C#N (some centres unmarked) : does inhibition at 0.1 µM equal or exceed 60%?
Result string: y

====

- Tested On: AR protein (Homo sapiens, UniProt P10275, T878A)
- Construct: degradation activity of the compounds disclosed in the present disclosure on AR protein in LNCaP cells; host or cells: LNCaP FGC
- Sequence (P10275 1-920 T878A): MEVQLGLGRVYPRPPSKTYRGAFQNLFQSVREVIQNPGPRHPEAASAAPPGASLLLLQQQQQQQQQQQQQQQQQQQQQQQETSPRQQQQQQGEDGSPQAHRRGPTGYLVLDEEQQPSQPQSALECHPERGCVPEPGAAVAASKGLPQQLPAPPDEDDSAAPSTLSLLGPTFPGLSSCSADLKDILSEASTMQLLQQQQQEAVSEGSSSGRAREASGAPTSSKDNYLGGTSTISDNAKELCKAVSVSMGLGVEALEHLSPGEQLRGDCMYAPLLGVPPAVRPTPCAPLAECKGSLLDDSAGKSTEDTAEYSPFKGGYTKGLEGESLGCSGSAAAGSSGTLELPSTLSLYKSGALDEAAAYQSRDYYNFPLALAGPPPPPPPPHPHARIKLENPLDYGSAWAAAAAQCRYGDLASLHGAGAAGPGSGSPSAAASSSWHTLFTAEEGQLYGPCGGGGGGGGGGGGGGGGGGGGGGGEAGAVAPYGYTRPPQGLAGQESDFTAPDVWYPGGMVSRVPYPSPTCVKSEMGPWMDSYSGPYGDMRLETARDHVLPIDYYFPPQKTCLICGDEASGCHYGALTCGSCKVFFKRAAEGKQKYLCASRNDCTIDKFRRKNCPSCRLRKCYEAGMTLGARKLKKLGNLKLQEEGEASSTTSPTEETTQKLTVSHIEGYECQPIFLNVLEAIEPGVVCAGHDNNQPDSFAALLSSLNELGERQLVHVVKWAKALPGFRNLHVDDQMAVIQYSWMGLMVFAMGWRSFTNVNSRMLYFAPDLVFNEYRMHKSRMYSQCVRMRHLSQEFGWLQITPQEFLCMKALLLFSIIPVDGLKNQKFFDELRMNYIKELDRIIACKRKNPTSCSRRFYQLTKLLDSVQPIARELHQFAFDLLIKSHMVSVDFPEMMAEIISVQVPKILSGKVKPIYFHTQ
- Assay Method Text: Degradation of AR protein in LNCaP cells (Western blot)
- Type: cell-based
- Condition Info: LNCaP cells, compound 100 nM, 8 hours, Western blot grayscale, GAPDH internal reference; read-out: Degradation rates of the AR protein in LNCaP cells, 100 nM (%)
Tick met if inhibition at 0.1 µM is 40% or greater. Tick not met if inhibition at 0.1 µM is less than 40%.

Query string: Check the entry N#Cc1ccc(O[C@H]2CC[C@H](NC(=O)c3ccc(N4CCC(CC(=O)N5CCC6(CC5)COc5c6ccc6c5CN(C5CCC(=O)NC5=O)C6=O)CC4)nn3)CC2)cc1Cl (some centres unmarked) : does inhibition at 0.1 µM equal or exceed 40%?
Result string: not met

Query string: Check the entry COc1cc(O[C@H]2C(C)(C)[C@H](NC(=O)c3ccc(N4CCC(C#N)(CN5CCC6(CC5)COc5c6ccc6c5CN(C5CCC(=O)NC5=O)C6=O)CC4)cc3)C2(C)C)ccc1C#N (some centres unmarked) : does inhibition at 0.1 µM equal or exceed 40%?
Result string: not met

Query string: Check the entry N#Cc1ccc(O[C@H]2CC[C@H](NC(=O)c3ccc(N4CCC(C#N)(CN5CCC6(CC5)COc5c6ccc6c5C(=O)N(C5CCC(=O)NC5=O)C6=O)CC4)nn3)CC2)cc1C(F)(F)F (some centres unmarked) : does inhibition at 0.1 µM equal or exceed 40%?
Result string: met

Query string: Check the entry N#Cc1ccc(O[C@H]2CC[C@H](NC(=O)c3ccc(N4CCC(CC5CC5)(CN5CCC6(CC5)COc5c6ccc6c5CN(C5CCC(=O)NC5=O)C6=O)CC4)nn3)CC2)cc1Cl (some centres unmarked) : does inhibition at 0.1 µM equal or exceed 40%?
Result string: not met

Query string: Check the entry COCC1(CN2CCC3(CC2)COc2c3ccc3c2CN(C2CCC(=O)NC2=O)C3=O)CCN(c2ccc(C(=O)N[C@H]3CC[C@H](Oc4ccc(C#N)c(Cl)c4)CC3)nn2)CC1 (some centres unmarked) : does inhibition at 0.1 µM equal or exceed 40%?
Result string: met
